- test: Phase 1 rising-single-dose pharmacokinetic study in healthy adult subjects (Example 1)
- Format: in vivo, human
- condition_summary: human, plasma; single oral dose 100 mg, mean, n = 6; read-out: t½ (converted)
assay_readout: half-life (h)
Expressed in h, but write only the number.

half-life measured on CC(C)(C)NC(=O)N[C@H](C(=O)N1C[C@H]2[C@@H]([C@H]1C(=O)NC(CC1CCC1)C(=O)C(N)=O)C2(C)C)C(C)(C)C (mixture of isomers) = 6.84
